# test: in vitro
# conditions_used: human
endpoint_name: IC50 (µM)
Answer format: numeric, µM implied, no suffix.

N#Cc1c(-c2ccc(F)cc2)nc(SCc2ccccc2)nc1N1CCNCC1 [4e]
28.2

Query: Any idea what its IC50 is? The compound is N#Cc1c(-c2ccc(F)cc2)nc(SCc2ccc(F)cc2)nc1N1CCNCC1 [4f]
Reply: 46.3

----------
# System: LOX IMVI
# test: NCI60 antitumor screening
# Format: cell-based, human
# conditions_used: Homo sapiens; 10 μM single dose; LOX IMVI (melanoma); read-out: growth inhibition percent (GI%)
endpoint_name: inhibition at 10 µM

Cc1ccc(CSc2nc(-c3ccc(F)cc3)c(C#N)c(N3CCN(c4ccccc4)CC3)n2)cc1 [4p]
< 10%
CN1CCN(c2nc(SCc3ccc(F)cc3)nc(-c3ccc(F)cc3)c2C#N)CC1 [4j]
22.9%

Continue with the next molecule.
Query: Any idea what its inhibition at 10 µM is? The molecule is N#Cc1c(-c2ccc(F)cc2)nc(SCc2ccccc2)nc1N1CCN(c2ccccc2)CC1 [4m]
Reply: < 10%
